target: ETV4 Phe428Ala/Phe432Ala (UniProt P43268 1-484, F428A;F432A); assay: EMSA
Sequence (P43268 whole entry F428A/F432A): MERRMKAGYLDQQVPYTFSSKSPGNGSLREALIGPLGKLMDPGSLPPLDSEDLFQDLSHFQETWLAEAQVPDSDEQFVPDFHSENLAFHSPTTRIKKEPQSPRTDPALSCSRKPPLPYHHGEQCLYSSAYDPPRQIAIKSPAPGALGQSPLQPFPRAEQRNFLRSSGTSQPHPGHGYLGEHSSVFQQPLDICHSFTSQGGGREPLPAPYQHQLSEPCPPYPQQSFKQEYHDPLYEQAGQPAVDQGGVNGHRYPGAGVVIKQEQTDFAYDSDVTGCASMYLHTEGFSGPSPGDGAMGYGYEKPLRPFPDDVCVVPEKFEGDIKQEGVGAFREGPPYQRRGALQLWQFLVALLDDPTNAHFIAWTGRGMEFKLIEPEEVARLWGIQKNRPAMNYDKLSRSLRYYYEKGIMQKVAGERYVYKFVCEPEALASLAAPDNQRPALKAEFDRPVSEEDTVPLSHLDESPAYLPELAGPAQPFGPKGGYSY
endpoint: Kd (nM)

> print(dat)
                                     binder  endpoint  numeric.value
1  27-bp consensus ETS duplex (dsDNA) DNA 1: TCGACGGCCAAGCCGGAAGTGAGTGCC DNA 2: TCGAGGCACTCACTTCCGGCTTGGCCG        Kd            3.7
